Attribution: a melting point compilation (Tetko et al.)

For each entry below, report its melting point value.

Consider the following illustrative entries.
SMILES_RECORD: NC(=O)CC(F)(F)F
melting point: 101 to 103 °C
//
SMILES_RECORD: Nc1ccc(C(=O)Nc2nccs2)cc1
melting point: 256 to 258 °C
//
SMILES_RECORD: O=C(c1cc(Br)c(S(=O)(=O)Cl)[nH]1)C(Cl)(Cl)Cl
melting point: 144 to 146 °C

Consider the following items and state reported melting point for each.
1. Cn1nc(-c2ccccc2)nc1CC#N
2. O=C1NCCc2ccc([N+](=O)[O-])cc21
3. CNC(=O)c1ccc(S(=O)(=O)Cl)cc1
4. NC(=O)NC(=O)CCl
5. Cn1cccc1C(=O)CCl
6. O=C(CCl)NCCc1cccc2ccccc12

1: 116 to 118 °C; 2: 228 to 230 °C; 3: 125 to 130 °C; 4: 181 to 183 °C; 5: 30 to 40 °C; 6: 104 to 106 °C

// lookup melting point for "CN(C)S(=O)(=O)c1cccc(C#N)c1"
128 to 130 °C
